Below is a list of entries, each paired with its recorded abundance fitness value.
B1: FERM and PDZ domain-containing protein 4, residues 75 to 154; numbered along this chain, Q14CM0 (parent)
chain: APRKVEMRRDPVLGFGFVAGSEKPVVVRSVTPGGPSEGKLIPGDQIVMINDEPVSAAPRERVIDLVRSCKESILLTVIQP

Variants of: B1
TEST: abundance fitness (aPCA) (normalised: wild type 0, dead -1); higher = more abundant; growth selection in yeast, the domain comes from the species named
CONDITIONS: Homo sapiens
A bare number is all that is needed in reply.

> print(dat)
   mutation.annotation  meas.value
1                 V66R      -0.818
2                 A19C      -0.001

// abundance fitness value for "A57N" : -0.149

Briefly, abundance fitness measured for "R28P" : -0.725

// "S21K" : abundance fitness value = -0.009

The value of abundance fitness measured for the variant "G33Q" turned out to be -0.122

According to the records, this variant "I49P" displays abundance fitness of -0.928

Sure, the documented abundance fitness for "F15L" is -0.26
